# ASSAY_INFO: Compound cytotoxicity assay (WST-1) in HCT-8 cells
# Format: cell-based, human
# MEASUREMENT_SETUP: human; HCT-8 cells, 24 h, WST-1
In this section, each of the compounds is paired with its reported IC50 at 24 h.
READOUT: IC50 at 24 h (µM)

* S=C(CSc1ccccc1)Nc1cccc2ccccc12 [NSC158011] | 149
* O=C1c2ccccc2C(=O)c2c(O)c(O)cc(O)c21 [NSC10447] | 290

====

# System: HCT-8 cells
# ASSAY_INFO: Compound cytotoxicity assay (WST-1) in HCT-8 cells
# Format: cell-based, human
# MEASUREMENT_SETUP: HCT-8 cells, 24 h, WST-1; read-out: CYTOTOXICITY IC50
pIC50: −log10 of the molar value.
Each entry below carries its reported pIC50.
READOUT: pIC50

* Cc1cc(N(CCCl)CCCl)ccc1/C=N/NC(=O)Cc1cc(=O)oc2cc(O)ccc12 [NSC79688] | 3.84
* Cc1cc2c(C(C)C)c(O)c(O)c(C=O)c2c(O)c1-c1c(C)cc2c(C(C)C)c(O)c(O)c(C=O)c2c1O [NSC56817] | 4.19
* CN(C)C(=S)SSC(=S)N(C)C [NSC1771] | 3.96

====

The entries below are paired with their reported pIC50.
# Tested on: Cryptosporidium parvum
# ASSAY_INFO: In vitro anti-Cryptosporidium effect in HCT-8 cells (immunofluorescence assay)
# Format: cell-based
# MEASUREMENT_SETUP: Cryptosporidium parvum, 72 h; HCT-8 cells; compound added at the time of infection; read-out: IC50, inhibition of C. parvum growth at 72 h p.i.
# Experimental: In vitro testing of the anti-Cryptosporidium effect of CpLDH inhibitors. HCT-8 cells were cultured in supplemented RPMI-1640 medium in 96-well plates. When the cells were confluent, old medium was replaced with fresh medium. […] The stained cells were washed twice with PBS, followed by water, and then imaged with an inverted fluorescence microscope. Fluorescence quantification was done using ImageJ version 1.37v software (NIH). […]
pIC50: −log10 of the molar value.
READOUT: pIC50

* O=C1c2ccccc2C(=O)c2c(O)c(O)cc(O)c21 | 4.08
* S=C(CSc1ccccc1)Nc1cccc2ccccc12 | 4.81

====

# System: HCT-8 cells
# ASSAY_INFO: Compound cytotoxicity assay (WST-1) in HCT-8 cells
# Format: cell-based, human
# Description: Compound cytotoxicity assay. […] A colorimetric assay using the cell proliferation reagent WST-1 (Roche, USA) for the quantification of cell viability was performed. […] After 24 h of culture, 10 μl of the cell proliferation reagent WST-1, (for quantification of cell viability) was added to each well, mixed and the plates incubated for 1 h at 37 C with 5% CO2 in the dark. […]
pIC50: −log10 of the molar value.
READOUT: pIC50

* O=C(O)[C@@H]1[C@H](C(=O)O)[C@]2(Cl)C(Cl)=C(Cl)[C@@]1(Cl)C2(Cl)Cl | 4.01
* N#CCCN(CCC#N)Cc1cc(O)c(CN(CCC#N)CCC#N)cc1O | 3.85
* O=c1oc2cc(O)ccc2c2oc3cc(O)ccc3c12 | 4.08
* Cc1cc2c(c3oc(C4(C)OC4C4OC4C)cc(=O)c13)C(=O)c1c(O)c(C3CC(C)(N(C)C)C(O)C(C)O3)cc(C3CC(N(C)C)C(O)C(C)O3)c1C2=O (stereo not drawn) | 3.74
* [Cl][Cd][Cl] | 4.40
* Cc1ccc2c(sc(-c3ccc4c(c3)sc(-c3ccc(N(C)C)cc3)[n+]4C)[n+]2C)c1S(=O)(=O)[O-].[Cl-] | 3.98
* CC(O)CCC(=O)c1ccoc1 (stereo not drawn) | 4.03
* CCOC(C)C(C=NNC(N)=S)=NNC(N)=S (stereo not drawn) | 3.93
* O=[N+]([O-])c1ccc2c(N=Nc3c(O)ccc4ccccc34)c(O)cc(S(=O)(=O)[O-])c2c1.[Na+] | 3.66
* O=C1/C(=C/c2ccccc2)CN(C(=O)/C=C/c2ccccc2)C/C1=C\c1ccccc1 | 3.81
* CC1=C(CCC(=O)O)c2cc3nc(cc4[nH]c(cc4C)cc4[nH]c(cc1n2)cc4C)C(C)=C3CCC(=O)O | 4.09
* O=C(CC(=O)C(F)(F)F)c1csc2ccccc12 | 4.04
* O=S(=O)(O)c1cc(N=Nc2cc(S(=O)(=O)O)c3cccnc3c2O)ccc1/C=C/c1ccc(N=Nc2cc(S(=O)(=O)O)c3cccnc3c2O)cc1S(=O)(=O)O | 3.93
* O=[N+]([O-])c1cccc2c(N=Nc3ccc4ccccc4c3O)c(O)cc(S(=O)(=O)O)c12.[Na+] | 3.99
* COc1ccc(/C=C/C(=O)Oc2cc(O)cc(O)c2)cc1 | 3.81

====

# System: Cryptosporidium parvum
# ASSAY_INFO: In vitro anti-Cryptosporidium effect in HCT-8 cells (immunofluorescence assay)
# Type: cell-based
# MEASUREMENT_SETUP: Cryptosporidium parvum; HCT-8 cells; compound added 2 h post-infection; read-out: IC50, inhibition of C. parvum growth at 48 h p.i. (2 h)
pIC50: −log10 of the molar value.
# Lookup of reported pIC50 keyed by entry
READOUT: pIC50

- S=C(CSc1ccccc1)Nc1cccc2ccccc12 [NSC158011]: 4.80
- O=C1c2ccccc2C(=O)c2c(O)c(O)cc(O)c21 [NSC10447]: 4.10

====

# Test system: HCT-8 cells
# ASSAY_INFO: Compound cytotoxicity assay (WST-1) in HCT-8 cells
# Format: cell-based, human
pIC50: −log10 of the molar value.
Parameter: pIC50. Scope: all listed entries.
READOUT: pIC50

• O=S(=O)(O)c1cc(N=[N+]([O-])c2cc(S(=O)(=O)O)c3ccccc3c2)cc2ccccc12 [NSC37031] = 3.48
• O=S(=O)([O-])c1cc(N=Nc2cc(S(=O)(=O)[O-])c3ccccc3c2O)ccc1/C=C/c1ccc(N=Nc2cc(S(=O)(=O)[O-])c3ccccc3c2O)cc1S(=O)(=O)[O-].[Na+].[Na+].[Na+].[Na+] [NSC34931] = 4.15
• O=Cc1cc([N+](=O)[O-])no1 [NSC626433] = 3.58
• O=C([CH-]C(=O)C(F)(F)F)c1ccccc1.O=C([CH-]C(=O)C(F)(F)F)c1ccccc1.O=C([CH-]C(=O)C(F)(F)F)c1ccccc1.O=C([CH-]C(=O)C(F)(F)F)c1ccccc1.[Eu+3].c1ccncc1 [NSC253995] = 4.08
• COC(=O)C1=C(C(=O)OC)SC2(S1)C(C(=O)OC)=C(C(=O)OC)Sc1c2ssc1=O [NSC686349] = 3.55
• CC(=O)Nc1ccc(-c2nc3ccccc3s2)cc1 [NSC33006] = 4.06
• CCOC(=O)Cc1c(C)c2cc(C(=O)c3ccccc3)c(O)cc2oc1=O [NSC115538] = 3.80

====

# ASSAY_SYSTEM: recombinant CpLDH protein (Cryptosporidium parvum, UniProt Q9GT92, F198L/K295E/R251K)
# Sequence (Q9GT92 whole entry F198L/K295E/R251K): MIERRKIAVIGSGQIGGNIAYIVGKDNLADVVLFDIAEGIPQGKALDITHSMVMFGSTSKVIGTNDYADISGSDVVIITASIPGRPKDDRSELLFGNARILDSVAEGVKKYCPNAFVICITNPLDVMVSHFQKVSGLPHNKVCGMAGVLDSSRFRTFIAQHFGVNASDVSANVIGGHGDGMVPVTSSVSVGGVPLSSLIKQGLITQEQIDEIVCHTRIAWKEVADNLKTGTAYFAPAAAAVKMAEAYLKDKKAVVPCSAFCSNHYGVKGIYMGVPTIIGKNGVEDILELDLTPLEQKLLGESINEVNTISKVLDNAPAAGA
# ASSAY_INFO: biochemical
# Assay type: biochemical
pIC50: −log10 of the molar value.
READOUT: pIC50

- O=C1c2ccccc2C(=O)c2c(O)c(O)cc(O)c21: 4.33
